Values were extracted from ChEMBL document CHEMBL4831542.

Tested on: SiHa
Assay: cells
Conditions: Homo sapiens, 72 h
Description: Antiproliferative activity against human SiHa cells assessed as inhibition of cell proliferation incubated for 72 hrs by CCK8 assay
value_kind: IC50

Q) // lookup IC50 for O=c1c(O)c(-c2ccc(Cl)c(Cl)c2)oc2c3c(ccc12)OCN(Cc1cccc(F)c1)C3
A) > 10 µM

====

Tested on: MCF7
Assay: cells
Settings: Homo sapiens, MCF7, 72 h
Description: Antiproliferative activity against human MCF7 cells assessed as inhibition of cell proliferation incubated for 72 hrs by CCK8 assay
value_kind: pIC50
pIC50 (log units): -log10 of the concentration in mol/L.

Q) Fill in the blank: the reported pIC50 of O=c1c(O)c(-c2ccc(Cl)c(Cl)c2)oc2c3c(ccc12)OCN(Cc1cccc(F)c1)C3 is ____.
A) 5.06

====

Tested on: U2OS
Assay: cells
Conditions: Homo sapiens, 72 h
Description: Antiproliferative activity against human U2OS cells assessed as inhibition of cell proliferation incubated for 72 hrs by CCK8 assay
value_kind: IC50

Q) May I ask what IC50 has been recorded for O=c1c(O)c(-c2ccc(Cl)c(Cl)c2)oc2c3c(ccc12)OCN(Cc1cccc(F)c1)C3 ?
A) > 10 µM
